// values below are reported protein stability index
B1: CHMP4C (parent)
chain: TNIRLPNVPSSSLPAQPNRKPGMS

Variants of: B1
Test summary: protein stability index of a GFP-peptide fusion (GPS, HEK-293T) (PSI 1-6); higher = more stable;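 note: lentivirally expressed fusions sorted by FACS into six bins by GFP to DsRed ratio, PSI derived from sequencing read proportions per bin multiplied by bin number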
Recorded conditions: c terminus: a fixed tail appended
Hey, just send me the number, nothing else.

TNFRLPNVPSSSLPAQPNRKPGMS [I3F] : 4.2
TNIRLPNVPSSSGPAQPNRKPGMS [L13G] : 4.27
TNIRLPNVPSSSLPAQENRKPGMS [P17E] : 4.96
TNIRLPNVPSSSLTAQPNRKPGMS [P14T] : 4.39
TNIRLPNKPSSSLPAQPNRKPGMS [V8K] : 4.63

Read the entry TNIRLPNQPSSSLPAQPNRKPGMS [V8Q] and write its reported protein stability index.
4.43

Using known records, supply protein stability index for NNIRLPNVPSSSLPAQPNRKPGMS [T1N]
4.82

Please list protein stability index recorded for the variant TNIRLPNVPSSSLPAQPNRKQGMS [P21Q]
4.96

State its protein stability index for this variant: TNIRLPNVTSSSLPAQPNRKPGMS [P9T]
4.55

State, in one line, measured protein stability index of TNIRLPNVPESSLPAQPNRKPGMS [S10E]
4.51

Give the value of protein stability index reported for the following: TNIRLPFVPSSSLPAQPNRKPGMS [N7F]
3.38

Answer with the recorded protein stability index of TNIRLPNVYSSSLPAQPNRKPGMS [P9Y] only.
3.62

Provide one value: measured protein stability index of TNIRLPNVPASSLPAQPNRKPGMS [S10A]
4.62

Specify reported protein stability index for the variant shown: TNGRLPNVPSSSLPAQPNRKPGMS [I3G]
4.72

Hello, please tell me recorded protein stability index for this one: TNIRLPNVPSSSLPAQPLRKPGMS [N18L]
4.25

Using known records, supply protein stability index for TNYRLPNVPSSSLPAQPNRKPGMS [I3Y]
4.33

Answer with reported protein stability index of TNIRLPNVPSSALPAQPNRKPGMS [S12A]
4.51
